Source of measurements: patent US4112076A

METHOD SUMMARY: Proliferation of uninfected mouse embryo fibroblast (MEF) cultures (cytotoxic action)
Type: cell-based
CONDITION INFO: mouse, mouse embryo fibroblasts
METRIC: CC50 at 72 h

Exercise: Identify measured CC50 at 72 h corresponding to C[C@@H]1O[C@@H](O[C@H]2C[C@](O)(C(=O)CO)Cc3c(O)c4c(c(O)c32)C(=O)c2ccccc2C4=O)C[C@H](N)[C@H]1O [4-demethoxy-4'-epi-adriamycin]
Solution: < 0.003 ng/mL

====

METHOD SUMMARY: Proliferation of uninfected mouse embryo fibroblast (MEF) cultures (cytotoxic action)
Assay type: cell-based
CONDITION INFO: mouse, mouse embryo fibroblasts; uninfected MEF, three days treatment; Table 2; read-out: Cytotoxic action ID50
METRIC: CC50 at 72 h (µg/mL)
Express it in µg/mL; write the number only.

COc1cccc2c1C(=O)c1c(O)c3c(c(O)c1C2=O)C[C@@](O)(C(C)=O)C[C@@H]3O[C@H]1C[C@H](N)[C@H](O)[C@H](C)O1 [Daunomycin] = 0.016

Exercise: Identify measured CC50 at 72 h corresponding to COc1cccc2c1C(=O)c1c(O)c3c(c(O)c1C2=O)C[C@@](O)(C(C)=O)C[C@@H]3O[C@H]1C[C@@H](N)[C@@H](O)[C@H](C)O1 [3'-4'-epi-daunomycin, 3',4'-epi-daunomycin]
Solution: 0.09

====

METHOD SUMMARY: Proliferation of uninfected mouse embryo fibroblast (MEF) cultures (cytotoxic action)
Format: cell-based
CONDITION INFO: mouse, mouse embryo fibroblasts; 72 (hours) treatment; Table 6; read-out: ID50, inhibition of mouse embryo fibroblasts proliferation
METRIC: CC50 at 72 h
I'd appreciate it if you wrote the number followed by its unit.

Exercise: Identify measured CC50 at 72 h corresponding to COc1cccc2c1C(=O)c1c(O)c3c(c(O)c1C2=O)C[C@@](O)(C(=O)CO)C[C@@H]3O[C@H]1C[C@H](N)[C@H](O)[C@H](C)O1 [Adriamycin, adriamycin]
Solution: 0.026 ng/mL
